# assayedSystem: T1, human MSR1 extracellular domain expressed with a N-terminal nonahistidine tag (His9-hMSR1); R&D Systems, Cat … (human, UniProt P21757 77-451)
# T1 construct: extracellular domain; Bought reagent; also called His-hMSR1; 9xHis-hMSR1
# T1 sequence: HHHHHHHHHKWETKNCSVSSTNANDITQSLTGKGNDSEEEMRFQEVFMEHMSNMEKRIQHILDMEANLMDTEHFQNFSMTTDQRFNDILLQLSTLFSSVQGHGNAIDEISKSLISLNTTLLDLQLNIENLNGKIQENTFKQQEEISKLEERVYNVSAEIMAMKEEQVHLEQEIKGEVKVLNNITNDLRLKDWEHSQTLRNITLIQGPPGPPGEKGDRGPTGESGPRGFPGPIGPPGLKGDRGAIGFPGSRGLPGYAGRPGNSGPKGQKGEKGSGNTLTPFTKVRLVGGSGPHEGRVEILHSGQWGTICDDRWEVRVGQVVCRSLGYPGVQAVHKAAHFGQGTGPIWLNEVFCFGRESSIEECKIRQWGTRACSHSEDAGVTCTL
# measurementNotes: SPR Biacore T200, 25 C, antibody captured by anti-human Fc, His9-hMSR1 injected; no dissociation seen, kd fixed at 1.00E-05
quantityKind: koff

[ask] Endpoint output: koff of H1H21234N-N297Q (antibody, human IgG1, V domains shown, human IgG1 Fc with N297Q (EU); also called H1H21234-N297Q) VH: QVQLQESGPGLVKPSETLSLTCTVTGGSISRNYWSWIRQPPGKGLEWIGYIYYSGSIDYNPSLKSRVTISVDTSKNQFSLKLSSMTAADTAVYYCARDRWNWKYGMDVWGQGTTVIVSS VL: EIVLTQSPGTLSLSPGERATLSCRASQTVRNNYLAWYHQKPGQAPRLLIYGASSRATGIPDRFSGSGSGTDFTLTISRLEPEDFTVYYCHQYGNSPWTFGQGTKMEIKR . Value?
[reply] ≤ 1e-05 s⁻¹

[ask] Endpoint output: koff of H1H27731P-N297Q-LP1 (antibody, V domains shown, LXR agonist linker-payload LP1 clicked to azido-PEG3-amine on Q295 and Q297 (EU) of the heavy chain constant region, antibody-drug conjugate; human IgG1 Fc with N297Q (EU); also called H1H27731P-LP1) VH: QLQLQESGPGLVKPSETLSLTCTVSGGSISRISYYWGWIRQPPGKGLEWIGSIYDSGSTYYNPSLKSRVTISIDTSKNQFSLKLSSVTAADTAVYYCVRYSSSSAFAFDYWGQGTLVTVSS VL: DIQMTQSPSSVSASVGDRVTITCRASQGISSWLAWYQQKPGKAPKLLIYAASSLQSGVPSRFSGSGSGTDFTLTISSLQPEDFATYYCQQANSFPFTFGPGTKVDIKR . Value?
[reply] ≤ 1e-05 s⁻¹

Please look at the following binder next.
[ask] Endpoint output: koff of H1H27754P-N297Q (antibody, human IgG1, V domains shown, human IgG1 Fc with N297Q (EU)) VH: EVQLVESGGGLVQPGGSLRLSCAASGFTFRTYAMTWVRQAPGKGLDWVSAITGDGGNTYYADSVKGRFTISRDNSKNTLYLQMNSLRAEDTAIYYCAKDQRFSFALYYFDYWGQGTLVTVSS VL: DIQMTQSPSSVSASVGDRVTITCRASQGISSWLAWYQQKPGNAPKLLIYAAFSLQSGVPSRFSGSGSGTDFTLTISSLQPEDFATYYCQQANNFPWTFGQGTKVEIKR . Value?
[reply] ≤ 1e-05 s⁻¹
